Tested on: Mono-Mac-6
experiment.notes: cell viability (% survival relative to DMSO control, bortezomib = 0%); higher = less cytotoxic
applied.conditions: 10000 nM; 72 h
Examples of compounds with documented cell viability follow.
assay.endpoint: cell viability

- N[C@](CCCCB(O)O)(CCN1CCCCC1)C(=O)O: 94.5%
- O=C(c1ccc(OCCN2CCCCC2)cc1)c1c(-c2ccc(O)cc2)sc2cc(O)ccc12: 77%
- C1CCc2nnc(C34CC5CC(CC(C5)C3)C4)n2CC1: 96%
- Clc1ccc(COC(Cn2ccnc2)c2ccc(Cl)cc2Cl)cc1 (stereo not given): 58.8%
- C1CCC(C(CC2CCCCN2)C2CCCCC2)CC1.O=C(O)/C=C\C(=O)O (stereo not given): 1.23%
